target: Trypsin (Homo sapiens, UniProt P07477+P07478+P35030); test: Inhibition of trypsin (unknown origin) using benzoyl-L-arginine-p-nitroanilide hydrochloride as substrate preincubated for 5 mins before substrate addition measured after 30 mins; type: protein assay
REPORTED PROPERTY: IC50 (µM)
Give bare numbers, in µM.

Here is how some compounds turned out for IC50.
CC(C)C[C@@H](NC(=O)[C@H](O)Cc1ccc(O)c(Cl)c1)C(=O)N1[C@H](C(=O)NCCCCNC(=N)N)C[C@@H]2CC[C@@H](OS(=O)(=O)O)C[C@@H]21 :: 9.5
N=C(N)NCCCCNC(=O)[C@@H]1C[C@@H]2CC[C@@H](O)C[C@@H]2N1C(=O)[C@H](Cc1ccccc1)NC(=O)[C@@H](O)Cc1ccc(O)c(Cl)c1 :: 30.8
N=C(N)NCCCCNC(=O)[C@@H]1C[C@@H]2CC[C@@H](O)C[C@@H]2N1C(=O)[C@H](Cc1ccccc1)NC(=O)[C@H](O)Cc1ccc(O)c(Cl)c1 :: 19

Could you now look at the following compound, please?
Form field IC50, entry CC(C)C[C@@H](NC(=O)[C@H](O)Cc1cc(Cl)c(O)c(Cl)c1)C(=O)N1[C@H](C(=O)NCCCCNC(=N)N)C[C@@H]2CC[C@@H](OS(=O)(=O)O)C[C@@H]21 : 7.3
